- assayNotes: xn = mol fraction of the nth substance listed, in the solute-free solvent
- conditionInfo: 313.15 K; x2 = 0.3103
propertyLabel: solubility (g/100 g solution)

| molecule | propertyLabel | testValue |
| --- | --- | --- |
| O=c1cc(CBr)c2ccccc2[nH]1 + CC(C)O + O | solubility (g/100 g solution) | 0.161 |

1 = O=c1cc(CBr)c2ccccc2[nH]1 + CCCO + O
2 = Nc1ncc(Br)nc1Br + CC(C)O + O
3 = O=C1C=CC(=O)N1c1ccccc1Br + CC(C)O + O
Ordering: ascending solubility (g/100 g solution). // ordering of labels required in reply 1, 2, 3
(1: 0.198, 2: 0.403, 3: 11.5)
